Species: Rattus norvegicus
procedureText: Open TG-GATES - Regimen: Single
Assay type: toxicity, organism-based, Sprague-Dawley
Set-up: regimen Single, gender Male, age 6 weeks
measurementSetup: in vivo, po, 0 mg/kg, 6 h, tissue Kidney, route gavage, dose level Control
# Lookup of reported KIDNEY_R keyed by entry
Be sure to follow the number with its unit.

For this compound ( CCc1cc(C(N)=S)ccn1 [ETHIONAMIDE] ), measured KIDNEY_R is 1 g

For this compound ( O=C(O)c1cc(/N=N/c2ccc(S(=O)(=O)Nc3ccccn3)cc2)ccc1O [SULFASALAZINE] ), measured KIDNEY_R is 1 g

For this compound ( NC(=O)N/N=C/c1ccc([N+](=O)[O-])o1 [NITROFURAZONE] ), measured KIDNEY_R is 0.9 g

For this compound ( CSc1ccc2c(c1)N(CCC1CCCCN1C)c1ccccc1S2 (stereo not given) [THIORIDAZINE] ), measured KIDNEY_R is 1 g

For this compound ( O=C(O)c1cn(C2CC2)c2cc(N3CCNCC3)c(F)cc2c1=O [CIPROFLOXACIN] ), measured KIDNEY_R is 0.9 g

For this compound ( Clc1ccccc1CN1CCc2sccc2C1 [TICLOPIDINE] ), measured KIDNEY_R is 0.9 g

For this compound ( Cn1c(=O)c2[nH]cnc2n(C)c1=O.O [THEOPHYLLINE] ), measured KIDNEY_R is 1 g

For this compound ( COc1ccc2c(c1)c(CC(=O)O)c(C)n2C(=O)c1ccc(Cl)cc1 [INDOMETHACIN] ), measured KIDNEY_R is 0.9 g

For this compound ( CC(=O)Oc1ccccc1C(=O)O [ASPIRIN] ), measured KIDNEY_R is 0.9 g

For this compound ( C[C@H](CS)C(=O)N1CCC[C@H]1C(=O)O [CAPTOPRIL] ), measured KIDNEY_R is 1 g

###

Species on record: Rattus norvegicus
procedureText: Open TG-GATES - Regimen: Single
Type: toxicity, organism-based, Sprague-Dawley
Set-up: regimen Single, gender Male, age 6 weeks
measurementSetup: in vivo, po, 1000 mg/kg, 6 h, tissue Plasma, route gavage, dose level High
propertyMeasured: gamma-GTP (IU/L)
Numbers only here, please. The scale is IU/L.

Field: example entries. Status: answers known.
O=C(O)c1cn(C2CC2)c2cc(N3CCNCC3)c(F)cc2c1=O : 1
Clc1ccccc1CN1CCc2sccc2C1 : 1

For this compound ( CCc1cc(C(N)=S)ccn1 [ETHIONAMIDE] ), measured gamma-GTP is 1.2

For this compound ( `O=C(O)c1cc(/N=N/c2ccc(S(=O)(=O)Nc3ccccn3)cc2)ccc1O` ), measured gamma-GTP is 1

For this compound ( `C[C@H](CS)C(=O)N1CCC[C@H]1C(=O)O` ), measured gamma-GTP is 1.6

###

Species on record: Rattus norvegicus
procedureText: Open TG-GATES - Regimen: Daily Repeat
Type: toxicity, organism-based, Sprague-Dawley
Design: regimen Daily Repeat, gender Male, age 6 weeks
measurementSetup: in vivo, po, 0 mg/kg, […], tissue Plasma, route gavage, dose level Control, time 14 day
propertyMeasured: TC
Be sure to follow the number with its unit.

COc1ccc2c(c1)c(CC(=O)O)c(C)n2C(=O)c1ccc(Cl)cc1 : 72.4 mg/dL
CCCC(CCC)C(=O)O : 77 mg/dL
NC(=O)N/N=C/c1ccc([N+](=O)[O-])o1 : 79.2 mg/dL
CCc1cc(C(N)=S)ccn1 [ETHIONAMIDE] : 68.8 mg/dL
CO[C@H]1/C=C/O[C@@]2(C)Oc3c(C)c(O)c4c(O)c(c(/C=N/N5CCN(C)CC5)c(O)c4c3C2=O)NC(=O)/C(C)=C\C=C\[C@H](C)[C@H](O)[C@@H](C)[C@@H](O)[C@@H](C)[C@H](OC(C)=O)[C@@H]1C : 68.6 mg/dL

For this compound ( `O=C(O)c1cn(C2CC2)c2cc(N3CCNCC3)c(F)cc2c1=O` ), measured TC is 82.2 mg/dL

For this compound ( `CN(C)CCC=C1c2ccccc2CCc2ccccc21` ), measured TC is 71.6 mg/dL

For this compound ( `C[C@H](CS)C(=O)N1CCC[C@H]1C(=O)O` ), measured TC is 85.4 mg/dL

For this compound ( CSc1ccc2c(c1)N(CCC1CCCCN1C)c1ccccc1S2 (centres undefined) ), measured TC is 71.8 mg/dL
